# credit: patent US20220089776A1

Below, each entry is listed alongside its reported Kd.
targetOfAssay: T1, human blood protein factor XII (FXII) (human, UniProt P00748 20-615)
T1 construct: mature; Single-chain zymogen as it circulates in plasma; also called human FXII; plasma-derived FXII
T1 sequence (looked up): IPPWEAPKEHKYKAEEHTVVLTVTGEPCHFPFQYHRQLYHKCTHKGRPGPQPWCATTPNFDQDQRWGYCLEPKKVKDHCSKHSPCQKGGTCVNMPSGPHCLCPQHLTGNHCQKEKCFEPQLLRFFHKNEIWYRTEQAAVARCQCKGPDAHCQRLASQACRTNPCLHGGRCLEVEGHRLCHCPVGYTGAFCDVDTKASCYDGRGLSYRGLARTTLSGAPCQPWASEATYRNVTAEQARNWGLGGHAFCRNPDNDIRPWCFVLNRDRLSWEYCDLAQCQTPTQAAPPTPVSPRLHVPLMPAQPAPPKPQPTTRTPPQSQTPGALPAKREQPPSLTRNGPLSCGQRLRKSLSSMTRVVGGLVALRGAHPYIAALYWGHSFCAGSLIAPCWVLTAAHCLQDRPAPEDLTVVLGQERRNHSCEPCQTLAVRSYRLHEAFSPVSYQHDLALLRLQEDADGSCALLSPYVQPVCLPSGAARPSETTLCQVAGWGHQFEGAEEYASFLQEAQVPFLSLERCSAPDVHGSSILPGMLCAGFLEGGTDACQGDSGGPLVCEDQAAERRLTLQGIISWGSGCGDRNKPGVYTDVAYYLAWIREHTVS
assay: BLI (Octet RED96), antibody on anti-human Fc biosensors, antigen in solution, 1:1 fit

{"binder": "humanized 5C12 antibody HC3 + LC1 (PP13899) (antibody, human IgG4 S228P, kappa, V domains shown, Human IgG4 (S241P hinge modified), expressed in HEK293; also called H7882 + L7880) VH: DVQLQESGPGLVKPSETLSLTCTVSGYSITSGYSWHWIRQPPGKGLEWIGYIQYSGNTNSNPSLKSRVTISRDTSKNQFSLRLSSVTAADTAVYYCARWGSFDYWGQGTMVTVSS VL: EIVLTQSPATLSLSPGERATLSCRASSSVNYLHWYQQKPGQAPRRLIYDTSKLATGIPARFSGSGSGTDYTLTISSLEPEDFAVYYCQQWSGNPPTFGGGTKVEIKR", "observedValue": "0.27 nM"}
{"binder": "humanized 5C12 antibody HC2 + LC2 (PP13897) (antibody, human IgG4 S228P, kappa, V domains shown, Human IgG4 (S241P hinge modified), expressed in HEK293; also called H7881 + L7881) VH: DVQLQESGPGLVKPSQTLSLTCTVTGYSITSGYSWHWIRQHPGKGLEWMGYIQYSGNTNSNPSLKSRVTISRDTSKNQFSLKLSSVTAADTAVYYCARWGSFDYWGQGTLVTVSS VL: EIVLTQSPATLSLSPGERATLSCRASSSVNYLHWYQQKPGQAPKRWIYDTSKLATGIPARFSGSGSGTDYTLTISSLEPEDFAVYYCQQWSGNPPTFGGGTKVEIKR", "observedValue": "0.15 nM"}
{"binder": "Chimera (chimeric parental antibody) PP13892 (antibody, human IgG4, V domains shown, Variable regions of murine AB053 on the same human IgG4 (S241P hinge modified) backbone as the humanized antibodies; also called H7879 + L7879) VH: DVQLQESGPDLVKPSQSLSLTCTVTGYSITSGYSWHWIRQFPGNNLEWMGYIQYSGNTNSNPSLKSRISITRDTSKNQFFLHLNSVTTEDTATYYCARWGSFDYWGQGTTLTVSS VL: QIVLTQSPAIMSASPGEKVTMTCSASSSVNYMHWYQQKSGTSPKRWIYDTSKLASGVPARFSGSGSGTSYSLTISSMEAGDAATYYCQQWSGNPPTFGGGTILEIK", "observedValue": "0.24 nM"}

Alright, here's another binder for you.
Per the records, this binder ( humanized 5C12 antibody HC1 + LC2 (PP13894) (antibody, human IgG4 S228P, kappa, V domains shown, Human IgG4 (S241P hinge modified), expressed in HEK293; also called H7880 + L7881) VH: QVQLQESGPGLVKPSQTLSLTCTVSGYSITSGYSWHWIRQHPGKGLEWIGYIQYSGNTNSNPSLKSRVTISRDTSKNQFSLKLSSVTAADTAVYYCARWGSFDYWGQGTLVTVSS VL: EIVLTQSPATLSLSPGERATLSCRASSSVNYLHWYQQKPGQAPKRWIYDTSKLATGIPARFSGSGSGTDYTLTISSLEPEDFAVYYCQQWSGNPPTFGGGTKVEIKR ) has Kd equal to 0.3 nM
